These data points were gathered from patent US9290490B2.

Molecular target: recombinant human GST-Syk (Homo sapiens (Human), UniProt P43405)
Test: Homogeneous Time-Resolved Fluorescence (HTRF) Assay for the Recombinant Human Syk Enzyme
Format: biochemical
Settings: recombinant human GST-Syk 5 pM, ATP 25 μM; read-out: rhSyk Activity (IC50)
// IC50 lookup, one value per entry

Known IC50 results, listed for orientation:
| Compound | Recorded result |
| --- | --- |
| Cc1cc(Nc2nccc(C(F)(F)F)n2)cc(-c2cnc(C(C)(O)C3CCC(C)(C(=O)O)CC3)s2)c1 (stereo not drawn) [Example 3-7] | ≤ 100 nM |
| Cc1cc(Nc2nccc(C(F)(F)F)n2)cc(-c2cnc(C(O)(CF)[C@H]3CC[C@H](C(=O)O)CC3)s2)c1 (stereo partly drawn) | ≤ 100 nM |
| CCCCOC(=O)[C@H]1CC[C@H](C(C)(O)c2ncc(-c3cc(C)cc(Nc4nccc(C(F)(F)F)n4)c3)s2)CC1 (relative stereo) | ≤ 100 nM |
| CC(O)(c1ncc(-c2cc(Nc3nccc(C(F)(F)F)n3)cc(C(F)F)c2)s1)[C@H]1CC[C@H](C(=O)O)CC1 (single isomer, unassigned) | ≤ 100 nM |

Qu. Tell me the measured IC50 of Cc1cc(Nc2nccc(C)n2)cc(-c2cnc(C[C@]3(O)CC[C@@H](C(=O)O)CC3)s2)c1 [Example 5 (cis isomer)] , please.
Ans. ≤ 100 nM

Qu. Tell me the measured IC50 of Cc1cc(Nc2nccc(C)n2)cc(-c2cnc(CC3(O)CCC(C(=O)OC(C)(C)C)CC3)s2)c1 (single isomer, unassigned) [Example 5, Step 3 (trans isomer)] , please.
Ans. 100 to 1000 nM

---

Target: recombinant human GST-Syk (Homo sapiens (Human), UniProt P43405)
Assay: Homogeneous Time-Resolved Fluorescence (HTRF) Assay for the Recombinant Human Syk Enzyme
Format: biochemical
Details: recombinant human GST-Syk 5 pM, ATP 25 μM; read-out: rhSyk Activity (IC50)
pIC50: −log10 of the molar value.
// pIC50 lookup, one value per entry

| Molecule | Recorded result |
| --- | --- |
| Cc1cc(Nc2nccc(C(F)(F)F)n2)cc(-c2cnc([C@@](O)(C3CC3)[C@H]3CC[C@H](C(=O)O)CC3)s2)c1 (single isomer, unassigned) [Example 2 (from Intermediate 28 faster eluting enantiomer)] | ≥ 7.00 |

Qu. Fill in the recorded pIC50 for this molecule, with recombinant human GST-Syk (Homo sapiens (Human), UniProt P43405) as test system: Cc1cc(Nc2nccc(C(F)(F)F)n2)cc(-c2cnc(C(O)C3CCC4(CC3)OCCO4)s2)c1 (stereo not drawn) [Example 22]
Ans. 6.00 to 7.00

Qu. Fill in the recorded pIC50 for this molecule, with recombinant human GST-Syk (Homo sapiens (Human), UniProt P43405) as test system: Cc1cc(Nc2nccc(C(F)(F)F)n2)cc(-c2cnc(C(O)[C@H]3CC[C@@H](C(N)=O)CC3)s2)c1 [Example 7 (cis isomer)]
Ans. ≥ 7.00

---

Molecular target: recombinant human GST-Syk (Homo sapiens (Human), UniProt P43405)
Assay: Homogeneous Time-Resolved Fluorescence (HTRF) Assay for the Recombinant Human Syk Enzyme
Assay type: biochemical
Settings: recombinant human GST-Syk 5 pM, ATP 25 μM, 10-dose titration; read-out: rhSyk
Protocol: Homogeneous Time-Resolved Fluorescence (HTRF) Assay for the Recombinant Human Syk Enzyme: A recombinant GST-hSyk fusion protein was used to measure potency of compounds to inhibit human Syk activity. […] The resulting HTRF signal was measured after 30 minutes on a EnVision (Perkin-Elmer) reader using a time-resolved fluorescence protocol. […]
Readout: IC50

| Compound | Target or test system | Recorded result |
| --- | --- | --- |
| C[C@](O)(c1ncc(-c2cc(CO)cc(Nc3nccc(C(F)(F)F)n3)c2)s1)[C@H]1CC[C@H](C(=O)O)CC1 (single isomer, unassigned) [Example 15] | recombinant human GST-Syk (Homo sapiens (Human), UniProt P43405) | < 0.5 nM |
| CC(O)(c1ncc(-c2cc(Nc3nccc(C(F)(F)F)n3)cc(C(F)F)c2)s1)[C@H]1CC[C@H](C(=O)O)CC1 (single isomer, unassigned) [Example 18] | recombinant human GST-Syk (Homo sapiens (Human), UniProt P43405) | < 0.5 nM |

Qu. Tell me the measured IC50 of Cc1cc(Nc2nccc(C(F)(F)F)n2)cc(-c2cnc(C(O)[C@H]3CC[C@H](C(N)=O)CC3)s2)c1 [Example 7 (trans isomer)] , please.
Ans. 35 nM
